- System: HuT78 (T-cell lymphoma) cells
- protocol_description: MTT antiproliferative assay, HuT78
- Type: cell-based, human
- condition_label: SI = IC50 MDCK1 / IC50 HuT78
Assign classes using reported SI (MDCK) HuT78 values and the ranges class A: < 2; class B: ≥ 2 and < 8; class C: ≥ 8, please.

compound	target_or_system	label
COc1cc(-c2nc3ccc(C4=NCCCN4)cc3[nH]2)ccc1OCC(=O)c1ccccc1 [42c]	HuT78 (T-cell lymphoma) cells	class B
Fc1cc(-c2nc3ccc(C4=NCCN4)cc3[nH]2)ccc1OCc1ccccn1 [43b]	HuT78 (T-cell lymphoma) cells	class B
O=C(COc1ccc(-c2nc3ccc(C4=NCCCN4)cc3s2)cc1F)c1ccccc1 [38b]	HuT78 (T-cell lymphoma) cells	class B
Fc1cc(-c2nc3ccc(Cl)cc3s2)ccc1OCc1c[nH]nn1 [21b]	HuT78 (T-cell lymphoma) cells	class B
O=C(COc1ccc(-c2nc3ccc(C4=NCCCN4)cc3[nH]2)cc1)c1ccccc1 [42a]	HuT78 (T-cell lymphoma) cells	class C

# input Which bin should I file c1cc(-c2nc3ccc(C4=NCCN4)cc3[nH]2)ccc1OCc1c[nH]nn1 [44a] under?
# output class A

# input Which bin should I file O=C(COc1ccc(-c2nc3ccc(C4=NCCCN4)cc3[nH]2)cc1F)c1ccccc1 [42b] under?
# output class B

# input Which bin should I file COc1cc(-c2nc3ccc(C4=NCCN4)cc3[nH]2)ccc1OCCN1CCOCC1 [48c] under?
# output class A

# input Which bin should I file Cl.Fc1cc(-c2nc3ccc(C4=NCCN4)cc3s2)ccc1OCc1c[nH]nn1 [36b] under?
# output class C

# input Which bin should I file COc1cc(-c2nc3ccc(C4=NCCCN4)cc3[nH]2)ccc1OCc1cn(CCN2CCOCC2)nn1 [46c] under?
# output class C

# input Which bin should I file O=C(COc1ccc(-c2nc3ccc(C4=NCCCN4)cc3s2)cc1)c1ccccc1 [38a] under?
# output class A

----------
- System: THP1 (human monocytic leukemia) cells
- protocol_description: MTT antiproliferative assay, THP1
- Type: cell-based
- condition_label: Homo sapiens, THP-1; 72 h, MTT, mean ± SD of three independent experiments
The label is yes for IC50 below 20 µM and no for IC50 equal to or exceeding 20 µM.

These solved cases illustrate the format of a correct answer.
compound	label
O=C(COc1ccc(-c2nc3ccc(C4=NCCCN4)cc3[nH]2)cc1F)c1ccccc1 [42b]	no
Fc1cc(-c2nc3ccc(C4=NCCCN4)cc3[nH]2)ccc1OCc1cn(Cc2ccccc2)nn1 [45b]	yes
COc1cc(-c2nc3ccc(C4=NCCCN4)cc3[nH]2)ccc1OCc1cn(Cc2ccccc2)nn1 [45c]	no
COc1cc(-c2nc3ccc(C4=NCCCN4)cc3[nH]2)ccc1OCc1cn(CCN2CCOCC2)nn1 [46c]	no

# input Report whether reported IC50 is lower than 20 µM (strictly) for O=C(COc1ccc(-c2nc3ccc(C4=NCCCN4)cc3s2)cc1F)c1ccccc1 [38b]
# output yes

# input Report whether reported IC50 is lower than 20 µM (strictly) for COc1cc(-c2nc3ccc(C4=NCCN4)cc3s2)ccc1OCc1c[nH]nn1.Cl [36c]
# output no

# input Report whether reported IC50 is lower than 20 µM (strictly) for COc1cc(-c2nc3ccc(C4=NCCCN4)cc3s2)ccc1OCc1ccccn1 [39c]
# output no

# input Report whether reported IC50 is lower than 20 µM (strictly) for c1ccc(COc2ccc(-c3nc4ccc(C5=NCCCN5)cc4[nH]3)cc2)nc1 [43a]
# output no

# input Report whether reported IC50 is lower than 20 µM (strictly) for O=C(COc1ccc(-c2nc3ccc(C4=NCCCN4)cc3[nH]2)cc1)c1ccccc1 [42a]
# output no
